- measurement.target: human mGluR2 (Homo sapiens, UniProt Q14416)
- Construct: expressed in transfected cells; host or cells: CHO cells, stably transfected; membranes
- Sequence (Q14416 19-872): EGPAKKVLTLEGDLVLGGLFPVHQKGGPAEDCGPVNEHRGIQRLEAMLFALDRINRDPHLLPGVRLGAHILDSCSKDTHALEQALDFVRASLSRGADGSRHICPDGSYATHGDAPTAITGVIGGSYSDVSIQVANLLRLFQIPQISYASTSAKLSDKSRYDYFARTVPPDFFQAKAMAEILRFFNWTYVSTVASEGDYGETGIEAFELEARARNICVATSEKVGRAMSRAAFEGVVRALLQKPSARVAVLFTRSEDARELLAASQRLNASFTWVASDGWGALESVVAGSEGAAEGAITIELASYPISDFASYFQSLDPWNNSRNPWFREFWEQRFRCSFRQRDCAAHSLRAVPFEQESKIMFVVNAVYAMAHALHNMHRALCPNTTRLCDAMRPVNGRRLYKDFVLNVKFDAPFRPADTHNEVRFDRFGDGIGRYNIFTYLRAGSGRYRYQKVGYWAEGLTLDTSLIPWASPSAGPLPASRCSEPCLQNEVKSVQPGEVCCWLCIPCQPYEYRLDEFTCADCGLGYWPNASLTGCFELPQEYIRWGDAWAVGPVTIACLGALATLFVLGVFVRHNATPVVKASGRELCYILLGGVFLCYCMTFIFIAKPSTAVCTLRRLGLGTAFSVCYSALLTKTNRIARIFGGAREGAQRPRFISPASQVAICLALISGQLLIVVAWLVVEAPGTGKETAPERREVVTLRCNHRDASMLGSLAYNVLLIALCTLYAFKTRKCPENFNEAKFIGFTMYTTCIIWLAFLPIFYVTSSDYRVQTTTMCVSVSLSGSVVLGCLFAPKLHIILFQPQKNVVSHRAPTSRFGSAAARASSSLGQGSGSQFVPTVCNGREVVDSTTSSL
- run.description: [35S]-GTPγS binding assay, membranes from CHO cells stably expressing human mGluR2
- Type: biochemical
- condition.set: 0.5 h; Emax relative to the maximum glutamate effect; 1 μM glutamate; read-out: Hu GTPgS Median Top Effect
Assignment: determine reported Emax for the given molecules.
Numbers only, in %.

                                smiles_repr  quantity_kind  numeric_result
0  Cc1cc(-c2cc(C(=O)N3CCNCC3)no2)cc2c1C(=O)N([C@@H](C)C1CC1)C2           Emax              79

List Emax for every entry below, keeping the order given.
1. CNC(=O)c1cc(-c2cc(C)c3c(c2)CN([C@@H](C)C2CC2)C3=O)on1
2. CC(C)N1Cc2cc(-c3cc(C(=O)N(C)CCO)no3)cc(Cl)c2C1=O
3. Cc1cc(-c2cc(C(N)=O)no2)cc2c1C(=O)N([C@@H](C)C1CC1)C2
4. CC(C)N1Cc2cc(-c3cc(C(=O)N4CCCC4)no3)cc(Cl)c2C1=O
5. Cc1cc(-c2cc(C(=O)N(C)C)no2)cc2c1C(=O)N(C(C)C)C2
6. CC(C)N1Cc2cc(-c3cc(C(=O)NC4CCCC4)no3)cc(Cl)c2C1=O
7. C[C@@H](C1CC1)N1Cc2cc(-c3cc(C(=O)N(C)CCO)no3)cc(Cl)c2C1=O
8. C[C@@H](C1CC1)N1Cc2cc(-c3cc(C(=O)N(C)C)no3)cc(Cl)c2C1=O

Result:
110
103
130
101
67
97
141
127

###

- measurement.target: human mGluR2 (Homo sapiens)
- Construct: expressed in transfected cells; host or cells: CHO cells, stably transfected; membranes
- run.description: [35S]-GTPγS binding assay, membranes from CHO cells stably expressing human mGluR2
- Format: biochemical
- condition.set: 0.5 h; Emax relative to the maximum glutamate effect; 1 μM glutamate; read-out: Hu GTPgS Median Top Effect
Can you tell me Emax for the items I'm about to list?
Please give the number followed by its unit.

>>> print(df.to_string())
                                smiles_repr  quantity_kind  result
0  Cc1cc(-c2cc(C(=O)N(C)C)no2)cc2c1C(=O)N([C@@H](C)C1CC1)C2           Emax    123%
1  CNC(=O)c1cc(-c2cc(Cl)c3c(c2)CN([C@@H](C)C2CC2)C3=O)on1           Emax    114%
2  C[C@H](N1Cc2cc(-c3cc(C(=O)N(C)C)no3)cc(Cl)c2C1=O)C(F)(F)F           Emax    139%
3  Cc1cc(-c2cc(C(=O)N(C)CCO)no2)cc2c1C(=O)N([C@@H](C)C1CC1)C2           Emax     78%
4  CC(C)N1Cc2cc(-c3cc(C(=O)N4CCOCC4)no3)cc(Cl)c2C1=O           Emax    100%

I need Emax for every entry listed below, if you could help.
1. C[C@@H](C1CC1)N1Cc2cc(-c3cc(C(=O)N4CCOCC4)no3)cc(Cl)c2C1=O
2. Cc1cc(-c2cc(C(=O)N(C)C(C)C)no2)cc2c1C(=O)N([C@@H](C)C1CC1)C2
3. CC(C)N1Cc2cc(-c3cc(C(N)=O)no3)cc(Cl)c2C1=O
4. C[C@@H](C1CC1)N1Cc2cc(-c3cc(C(N)=O)no3)cc(Cl)c2C1=O
5. Cc1cc(-c2cc(C(=O)N(C)C)no2)cc2c1C(=O)N([C@@H](C)C(F)(F)F)C2

Result:
122%
100%
117%
139%
114%

For each of the compounds below, note its Emax.
1. C[C@H](N1Cc2cc(-c3cc(C(=O)N4CCOCC4)no3)cc(Cl)c2C1=O)C(F)(F)F
2. CC(C)N(C)C(=O)c1cc(-c2cc(Cl)c3c(c2)CN([C@@H](C)C2CC2)C3=O)on1

Result:
1. 106%
2. 109%
